test system: Purkinje-Fasern aus Hundeherzen; assay: Electrophysiological studies on Purkinje fibres from dog hearts (Vmax); type: cell-based, Hund; details: specifically stronger activity at higher frequencies
# key: entry, value: Rate-Faktor von Vmax

COc1ccc(CCC(=O)c2ccc(C)cc2)cc1OCC(O)CN1CCCCC1.Cl (stereo not shown) [Beispiel 40]: 1,33
CCC(C)(C)NCC(O)COc1cc(CCC(=O)c2ccc(OC)c(OC)c2)ccc1OC.Cl (stereo not shown) [Beispiel 27]: 1,25
CCCNCC(O)COc1ccccc1C(=O)CCc1ccccc1 (stereo not shown) [A, Propafenon, reference compound]: 1,08

Next item in the queue.
Looking for the measured Rate-Faktor von Vmax of CCC(C)(C)NCC(O)COc1cc(CCC(=O)c2ccc3ccccc3c2)ccc1OC.Cl (stereo not shown) [Beispiel 47] , can you help? 1,22

---

assay: Acute toxicity LD50 in rats, i.v.; conditions: rat, in vivo, iv; Ratte (i.v.); read-out: LD₅₀
recorded_endpoint: LD50 (mg/kg)
// return numeric value only (unit: mg/kg, not printed)

In the examples that follow, each entry is paired with its recorded LD50.
CCC(C)(C)NCC(O)COc1cc(CCC(=O)c2ccc(C)cc2)ccc1OC.Cl (stereo not drawn): 10
COc1ccc(CCC(=O)c2cc(OC)c(OC)c(OC)c2)cc1OCC(O)CNC(C)(C)C.Cl (stereo not drawn): 13

Looking for the measured LD50 of CCC(C)(C)NCC(O)COc1cc(CCC(=O)c2cc(OC)c(OC)c(OC)c2)ccc1OC.Cl (stereo not drawn) , can you help? 11

---

tested on: Purkinje-Fasern aus Hundeherzen; assay: Electrophysiological studies on Purkinje fibres from dog hearts (Vmax); assay type: cell-based, Hund; conditions: specifically stronger activity at higher frequencies
recorded_endpoint: Rate-Faktor von Vmax

CCCNCC(O)COc1cc(CCC(=O)c2ccc(C)cc2)ccc1OC.Cl (stereo not shown): 1,22
COc1ccc(C(=O)CCc2ccc(OC)c(OCC(O)CNC(C)C)c2)cc1OC.Cl (stereo not shown): 5,00
COc1cc(C(=O)CCc2cccc(OCC(O)CNC(C)(C)C)c2)cc(OC)c1OC.Cl (stereo not shown): 1,17
COc1ccc(CCC(=O)c2cc(OC)c(OC)c(OC)c2)cc1OCC(O)CNC1CCCCC1.Cl (stereo not shown): 1,25
Cc1cc(C)c(C(=O)CCc2cccc(OCC(O)CNC(C)(C)C)c2)c(C)c1.Cl (stereo not shown): 1,47
Cc1cc(C)c(C(=O)CCc2cccc(OCC(O)CNC(C)C)c2)c(C)c1.Cc1cc(C)c(C(=O)CCc2cccc(OCC(O)CNC(C)C)c2)c(C)c1.O=C(O)C(=O)O (stereo not shown): 1,09

Looking for the measured Rate-Faktor von Vmax of CCCNCC(O)COc1cc(CCC(=O)c2ccc(OC)c(OC)c2)ccc1OC.Cl (stereo not shown) , can you help? 0,97

Looking for the measured Rate-Faktor von Vmax of COc1cc(C(=O)CCc2cccc(OCC(O)CNC(C)C)c2)cc(OC)c1OC.Cl (stereo not shown) , can you help? 1,26

Looking for the measured Rate-Faktor von Vmax of Cc1cc(C)c(CC(=O)Cc2cccc(OCC(O)CNC(C)(C)C)c2)c(C)c1.Cl (stereo not shown) , can you help? 1,12

Looking for the measured Rate-Faktor von Vmax of CCC(C)(C)NCC(O)COc1cc(CCC(=O)c2ccc(C)cc2)ccc1OC.Cl (stereo not shown) , can you help? 1,41

Looking for the measured Rate-Faktor von Vmax of CCCNCC(O)COc1cc(CCC(=O)c2ccc3ccccc3c2)ccc1OC.Cl (stereo not shown) , can you help? 1,43

Looking for the measured Rate-Faktor von Vmax of CCCNCC(O)COc1cccc(CCC(=O)c2ccc(OC)cc2)c1.Cl (stereo not shown) , can you help? 1,21

Looking for the measured Rate-Faktor von Vmax of COc1ccc(CCC(=O)c2cc(OC)c(OC)c(OC)c2)cc1OCC(O)CNC(C)(C)C.Cl (stereo not shown) , can you help? 1,15

Looking for the measured Rate-Faktor von Vmax of COc1ccc(CCC(=O)c2cc(OC)c(OC)c(OC)c2)cc1OCC(O)CNC(C)C.Cl (stereo not shown) , can you help? 1,13

Looking for the measured Rate-Faktor von Vmax of CCC(C)(C)NCC(O)COc1cccc(CCC(=O)c2c(C)cc(C)cc2C)c1.Cl (stereo not shown) , can you help? 1,15

Looking for the measured Rate-Faktor von Vmax of CCC(C)(C)NCC(O)COc1cccc(CCC(=O)c2cc(OC)c(OC)c(OC)c2)c1.Cl (stereo not shown) , can you help? 5,00

From: patent EP0297435A2
